ASSAY TARGET: MBP-CK1εΔC (human CK1ε amino acids 1-294) (human) (UniProt P49674)
Sequence (P49674 1-294, stated change not applied): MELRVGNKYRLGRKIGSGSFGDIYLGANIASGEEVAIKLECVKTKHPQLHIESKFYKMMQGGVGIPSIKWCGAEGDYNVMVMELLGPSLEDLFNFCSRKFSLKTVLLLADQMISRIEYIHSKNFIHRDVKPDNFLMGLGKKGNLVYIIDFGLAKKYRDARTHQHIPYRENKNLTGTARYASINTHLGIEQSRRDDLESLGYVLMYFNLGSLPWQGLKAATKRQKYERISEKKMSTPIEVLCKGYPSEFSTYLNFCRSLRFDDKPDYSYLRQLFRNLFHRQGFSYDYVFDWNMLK
MEASUREMENT PROTOCOL: ITC; Nano-ITC, 25°C, 10 mM NaPO4 (pH 7.5), 150 mM NaCl, 0.25 mM TCEP; cell: 100 μM MBP-Hhp1ΔC or MBP-CK1εΔC; syringe: 2 mM peptide; single-site binding model; duplicate
Square brackets hold non-standard residues; d marks the D form. Ends that are not written are not given here. * marks the point of attachment. Biotin = O=C1N[C@H]2[C@H](CS[C@H]2CCCCC(=O)*)N1; pT = C[C@@H](OP(=O)(O)O)[C@H](N)C(=O)O; pS = N[C@@H](COP(=O)(O)O)C(=O)O
MEASURE: Kd (µM)
Numbers only, in µM.

Quick one: Kd of Biotin-GAPANV[pS][pS][pS]DLTGRQEVSRIPA[pS]Q[pT][pS]VPFDHLGK (peptide, UniProt P49674 383-416, looked up, human CK1ε, final 34 amino acids, 383-416; source: synthetic peptide (LifeTein LLC)) [CK1ε EC-6P peptide (amino acids 383 to 416 of CK1ε, phosphorylated at six sites, biotin-conjugated)] ?
343
